# ASSAY_METHOD_TEXT: Metabolic stability in mouse plasma assessed as parent compound remaining after 2 hrs
# Assay type: ADME, cell-free
# CONDITIONS_USED: read-out: Stability
ENDPOINT: remaining at 2 h (%)
One number for each entry, in %.

Need remaining at 2 h, item COc1ccc(NC(=O)c2ccc(CN3C(=O)c4ccc(Cl)cc4NC(=O)[C@H]3Cc3ccccn3)cc2Cl)nc1
100

###

# ASSAY_METHOD_TEXT: Metabolic stability in mouse liver microsomes assessed as parent compound remaining after 15 mins
# Format: ADME, Microsome
# CONDITIONS_USED: read-out: Stability
// classify(record): look up remaining at 0.25 h in ranges low bin = under 40%, mid bin = from 40% up to 70%, high bin = 70% and over

Use these answered entries as a reference point.
STRUCTURE_STRING | CLASS_LABEL
COc1cc(CN2C(=O)c3ccc(Cl)cc3NC(=O)[C@H]2Cc2ccccn2)ccc1C(=O)Nc1ccc(C)cn1 | mid bin
Cc1cc(CN2C(=O)c3ccc(Cl)cc3NC(=O)[C@H]2Cc2ccccn2)ccc1C(=O)Nc1ccc(F)cn1 | mid bin

Then this compound:
Looking at Cc1cnc(NC(=O)c2ccc(CN3C(=O)c4ccc(Cl)cc4NC(=O)[C@H]3Cc3ccccn3)cc2Cl)cn1 , which class would you pick?
high bin
